# system under test: Histone acetyltransferase p300 (Homo sapiens, UniProt Q09472)
# Sequence (Q09472 whole entry, the tested form may be a part): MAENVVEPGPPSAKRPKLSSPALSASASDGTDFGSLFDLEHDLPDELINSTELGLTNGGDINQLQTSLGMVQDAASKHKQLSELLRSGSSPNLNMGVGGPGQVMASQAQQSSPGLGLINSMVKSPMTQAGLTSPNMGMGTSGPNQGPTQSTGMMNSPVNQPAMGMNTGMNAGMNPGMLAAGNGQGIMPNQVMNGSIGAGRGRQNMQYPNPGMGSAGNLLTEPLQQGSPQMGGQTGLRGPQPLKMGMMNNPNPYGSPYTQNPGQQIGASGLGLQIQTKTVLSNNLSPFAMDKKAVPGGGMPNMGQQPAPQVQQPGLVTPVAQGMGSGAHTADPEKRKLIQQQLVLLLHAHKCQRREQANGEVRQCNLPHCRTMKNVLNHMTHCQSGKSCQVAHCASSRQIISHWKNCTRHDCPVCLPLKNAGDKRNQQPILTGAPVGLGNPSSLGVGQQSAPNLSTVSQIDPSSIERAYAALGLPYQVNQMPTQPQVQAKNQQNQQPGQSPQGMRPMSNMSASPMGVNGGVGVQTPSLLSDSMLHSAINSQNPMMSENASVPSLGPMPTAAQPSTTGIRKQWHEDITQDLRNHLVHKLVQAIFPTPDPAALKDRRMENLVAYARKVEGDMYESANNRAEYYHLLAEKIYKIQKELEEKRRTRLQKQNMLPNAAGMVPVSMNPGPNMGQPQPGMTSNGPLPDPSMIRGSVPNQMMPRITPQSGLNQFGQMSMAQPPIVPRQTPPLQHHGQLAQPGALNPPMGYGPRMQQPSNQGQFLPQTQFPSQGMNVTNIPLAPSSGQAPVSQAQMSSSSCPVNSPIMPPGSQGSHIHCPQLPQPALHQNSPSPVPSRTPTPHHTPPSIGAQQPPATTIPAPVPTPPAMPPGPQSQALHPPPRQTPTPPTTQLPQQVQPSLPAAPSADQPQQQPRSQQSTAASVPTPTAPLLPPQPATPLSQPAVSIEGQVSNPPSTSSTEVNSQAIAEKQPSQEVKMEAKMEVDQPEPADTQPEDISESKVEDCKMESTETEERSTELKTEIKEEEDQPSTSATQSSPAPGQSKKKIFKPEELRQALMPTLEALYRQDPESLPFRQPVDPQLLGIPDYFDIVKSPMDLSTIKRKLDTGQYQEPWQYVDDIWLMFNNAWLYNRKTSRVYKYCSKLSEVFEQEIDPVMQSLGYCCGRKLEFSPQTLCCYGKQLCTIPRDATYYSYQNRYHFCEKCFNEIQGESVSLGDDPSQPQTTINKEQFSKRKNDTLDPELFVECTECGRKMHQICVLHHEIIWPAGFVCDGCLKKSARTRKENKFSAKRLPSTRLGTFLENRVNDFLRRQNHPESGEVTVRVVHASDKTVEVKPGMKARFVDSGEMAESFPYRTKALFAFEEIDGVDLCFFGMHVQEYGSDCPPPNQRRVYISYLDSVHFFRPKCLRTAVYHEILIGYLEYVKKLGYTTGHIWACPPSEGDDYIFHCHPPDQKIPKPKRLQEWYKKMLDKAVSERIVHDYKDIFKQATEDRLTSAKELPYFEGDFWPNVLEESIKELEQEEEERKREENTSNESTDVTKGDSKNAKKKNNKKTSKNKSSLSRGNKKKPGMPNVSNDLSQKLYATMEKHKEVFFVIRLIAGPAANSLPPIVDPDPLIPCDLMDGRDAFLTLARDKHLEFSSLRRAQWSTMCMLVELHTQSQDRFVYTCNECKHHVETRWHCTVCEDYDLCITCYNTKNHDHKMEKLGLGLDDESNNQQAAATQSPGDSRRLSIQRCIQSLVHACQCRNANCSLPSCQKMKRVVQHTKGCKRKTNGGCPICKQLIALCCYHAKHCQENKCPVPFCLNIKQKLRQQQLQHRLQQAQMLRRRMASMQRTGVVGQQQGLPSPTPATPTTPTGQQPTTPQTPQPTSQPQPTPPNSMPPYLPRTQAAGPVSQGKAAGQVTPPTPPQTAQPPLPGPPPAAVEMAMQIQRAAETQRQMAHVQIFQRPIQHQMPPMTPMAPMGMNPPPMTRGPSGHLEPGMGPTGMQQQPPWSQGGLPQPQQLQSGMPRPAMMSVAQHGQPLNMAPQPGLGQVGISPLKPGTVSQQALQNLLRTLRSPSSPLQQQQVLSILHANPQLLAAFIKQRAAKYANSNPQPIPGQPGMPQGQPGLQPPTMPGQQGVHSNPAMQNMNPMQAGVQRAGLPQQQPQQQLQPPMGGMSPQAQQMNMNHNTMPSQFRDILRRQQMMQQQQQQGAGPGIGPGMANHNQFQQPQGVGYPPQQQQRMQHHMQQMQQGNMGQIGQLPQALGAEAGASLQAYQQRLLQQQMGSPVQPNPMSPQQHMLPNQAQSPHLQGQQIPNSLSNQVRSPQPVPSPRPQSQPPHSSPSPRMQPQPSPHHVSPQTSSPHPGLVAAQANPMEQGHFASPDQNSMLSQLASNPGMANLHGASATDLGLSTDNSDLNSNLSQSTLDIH
# test details: Binding affinity to HAT p300 catalytic domain by fluorometric titration
Could you please report measured Kd for the items listed next?
Supply the numeric figure in µM, leaving out any unit text.

[in] Read off the recorded Kd for C=C(C)[C@@H](CC=C(C)C)C[C@@]12C[C@@H](CC=C(C)C)C(C)(C)[C@@](CC=C(C)C)(C(=O)C(C(=O)c3ccc(O)c(O)c3)=C1O)C2=O
[out] 1.8

[in] Read off the recorded Kd for CC(C)=CC[C@H]1C[C@@]23C[C@@H](CC=C(C)C)C(C)(C)[C@@](CC=C(C)C)(C(=O)C(C(=O)c4ccc(O)c(O)c4)=C2OC1(C)C)C3=O
[out] 1.1

Hello, the source for this data is ChEMBL document CHEMBL1139360, in case you need it.
